# target_system: LK35.2-hPD-L1 cells / PE-labeled PD-1-Ig (Homo sapiens)
# Construct: expressed in transfected cells; host or cells: LK35.2 mouse B cell line
# assay_overview: LK35.2-hPD-L1 cell binding high-content screening assay
# Type: cell-based
# assay_context: cell binding assay, cell line not given; cluster symbol; read-out: CBA IC50 cluster
Positions of bridges follow the written chain, without caps; N, C: chain ends. Non-standard residues stand in square brackets, D forms with d. Residues, ends and D or L forms follow the SMILES beside them. dDopa = N[C@H](Cc1ccc(O)c(O)c1)C(=O)O; Bta = N[C@@H](Cc1csc2ccccc12)C(=O)O; Hyp = O=C(O)[C@@H]1C[C@@H](O)CN1; NMeF = CN[C@@H](Cc1ccccc1)C(=O)O; NMeNle = CCCC[C@H](NC)C(=O)O; NMeA = CN[C@@H](C)C(=O)O; Dap = NC[C@H](N)C(=O)O; Sar = CNCC(=O)O
result_type: IC50

Reference set (3 entries):
compound	result_type	reported_value
CCCC[C@H]1C(=O)N(C)[C@@H](CCCC)C(=O)N[C@@H](CCCNC(=N)N)C(=O)N[C@H](C(=O)NCC(N)=O)CSCC(=O)N[C@@H](Cc2ccc(O)cc2)C(=O)N(C)[C@@H](C)C(=O)N[C@@H](CC(N)=O)C(=O)N2CCC[C@H]2C(=O)N[C@@H](CN)C(=O)N[C@@H](CC(N)=O)C(=O)N2C[C@H](O)C[C@H]2C(=O)N[C@@H](Cc2c[nH]c3ccccc23)C(=O)N[C@@H](CO)C(=O)N[C@@H](Cc2csc3ccccc23)C(=O)N1C [Example 6028] ({CH2CO}-Y[NMeA]NP[Dap]N[Hyp]WS[Bta][NMeNle][NMeNle]RCG-NH2; thioether N-14)	IC50	0.158 to 4.71 nM
CCCC[C@H]1C(=O)N(C)[C@@H](CCCC)C(=O)N[C@@H](C)C(=O)N[C@H](C(=O)NCC(N)=O)CSCC(=O)N[C@@H](Cc2ccc(O)cc2)C(=O)N(C)[C@@H](C)C(=O)N[C@@H](CC(N)=O)C(=O)N2CCC[C@H]2C(=O)N[C@@H](Cc2cnc[nH]2)C(=O)N[C@@H](CC(C)C)C(=O)N2C[C@H](O)C[C@H]2C(=O)N[C@@H](Cc2c[nH]c3ccccc23)C(=O)N[C@@H](CCN)C(=O)N[C@@H](Cc2c[nH]c3ccccc23)C(=O)N1C	IC50	0.158 to 4.71 nM
CCCC[C@H]1C(=O)N(C)[C@@H](COc2cccc(C)c2)C(=O)N[C@@H](CCN)C(=O)N[C@H](C(=O)NCC(N)=O)CSCC(=O)N[C@@H](Cc2ccc(O)cc2)C(=O)N(C)[C@@H](C)C(=O)N[C@@H](CC(N)=O)C(=O)N2CCC[C@H]2C(=O)N[C@@H](CN)C(=O)N[C@@H](CCC(=O)O)C(=O)N2C[C@H](O)C[C@H]2C(=O)N[C@@H](Cc2c[nH]c3ccccc23)C(=O)N[C@@H](CO)C(=O)N[C@@H](Cc2c[nH]c3ccccc23)C(=O)N1C	IC50	4.78 to 72.9 nM

API: the following record is the query input.
-- ask In one line, give reported IC50 of the entry CCCC[C@H]1C(=O)N(C)CC(=O)N[C@@H](CC(=O)O)C(=O)N[C@@H](C(C)C)C(=O)N(C)[C@@H](Cc2ccccc2)C(=O)N[C@@H](Cc2ccc(O)cc2)C(=O)N(C)CC(=O)N[C@@H](Cc2c[nH]c3ccccc23)C(=O)N[C@H](Cc2ccc(O)c(O)c2)C(=O)N[C@@H](CC(C)C)C(=O)N[C@H](C(=O)NCC(N)=O)CSCC(=O)N[C@@H](Cc2ccccc2)C(=O)N(C)[C@@H](Cc2ccccc2)C(=O)N1C [Example 3579] ({CH2CO}-F[NMeF][NMeNle][Sar]DV[NMeF]Y[Sar]W[dDopa]LCG-NH2; thioether N-13) .
-- reply 0.158 to 4.71 nM

###

# target_system: LK35.2-hPD-L1 cells / PE-labeled PD-1-Ig (Homo sapiens, UniProt Q9NZQ7)
# Construct: expressed in transfected cells; host or cells: LK35.2 mouse B cell line
# Sequence (Q9NZQ7 19-290): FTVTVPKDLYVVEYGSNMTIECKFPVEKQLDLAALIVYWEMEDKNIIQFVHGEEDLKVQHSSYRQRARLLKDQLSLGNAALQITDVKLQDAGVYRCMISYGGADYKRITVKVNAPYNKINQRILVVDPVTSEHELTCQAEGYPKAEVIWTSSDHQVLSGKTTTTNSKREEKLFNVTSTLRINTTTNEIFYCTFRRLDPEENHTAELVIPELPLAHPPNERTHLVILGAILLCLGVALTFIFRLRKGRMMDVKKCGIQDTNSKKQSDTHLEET
# assay_overview: LK35.2-hPD-L1 cell binding high-content screening assay
# Type: cell-based
# assay_context: cell binding assay, cell line not given; cluster symbol; read-out: CBA IC50 cluster
pIC50: −log10 of the molar value. Positions of bridges follow the written chain, without caps; N, C: chain ends. Non-standard residues stand in square brackets, D forms with d. Residues, ends and D or L forms follow the SMILES beside them. ξ: configuration not given here. Hyp = O=C(O)[C@@H]1C[C@@H](O)CN1; NMeF = CN[C@@H](Cc1ccccc1)C(=O)O; dHyp = O=C(O)[C@H]1C[C@H](O)CN1; NMeNle = CCCC[C@H](NC)C(=O)O; NMeM = CN[C@@H](CCSC)C(=O)O; NMeS = CN[C@@H](CO)C(=O)O; NMeA = CN[C@@H](C)C(=O)O; Dap = NC[C@H](N)C(=O)O; ξC = NC(CS)C(=O)O; Sar = CNCC(=O)O
result_type: pIC50

Would you please look over these solved cases?
molecule	pIC50
CCCC[C@H]1C(=O)N(C)CC(=O)N[C@@H](CC(=O)O)C(=O)N[C@@H](C(C)C)C(=O)N(C)[C@@H](Cc2ccccc2)C(=O)N[C@@H](Cc2ccc(O)cc2)C(=O)N2C[C@@H](O)C[C@@H]2C(=O)N[C@@H](Cc2c[nH]c3ccccc23)C(=O)N[C@@H](Cc2ccc(O)cc2)C(=O)N[C@@H](CC(C)C)C(=O)N[C@H](C(=O)NCC(N)=O)CSCC(=O)N[C@@H](Cc2ccccc2)C(=O)N(C)[C@@H](Cc2ccccc2)C(=O)N1C [Example 3576] ({CH2CO}-F[NMeF][NMeNle][Sar]DV[NMeF]Y[dHyp]WYLCG-NH2; thioether N-13)	7.14 to 8.32
CCCC[C@H]1C(=O)N(C)[C@@H](CCCC)C(=O)N[C@@H](CCCNC(=N)N)C(=O)NC(C(=O)NCC(N)=O)CSCC(=O)N[C@@H](Cc2ccc(O)cc2)C(=O)N(C)[C@@H](CO)C(=O)N[C@@H](CC(N)=O)C(=O)N2CCC[C@H]2C(=O)N[C@@H](Cc2cnc[nH]2)C(=O)N[C@@H](CC(C)C)C(=O)N2CCC[C@H]2C(=O)N[C@@H](Cc2c[nH]c3ccccc23)C(=O)N[C@@H](CO)C(=O)N[C@@H](Cc2c[nH]c3ccccc23)C(=O)N1C (stereo partly shown) [Example 9038] ({CH2CO}-Y[NMeS]NPHLPWSW[NMeNle][NMeNle]R[ξC]G-NH2; thioether N-14)	7.14 to 8.32
CCCC[C@H]1C(=O)N(C)[C@@H](CCSC)C(=O)N[C@@H](CCCNC(=N)N)C(=O)NC(C(=O)NCC(N)=O)CSCC(=O)N[C@@H](Cc2ccc(O)cc2)C(=O)N(C)[C@@H](C)C(=O)N[C@@H](CC(N)=O)C(=O)N2CCC[C@H]2C(=O)N[C@@H](CN)C(=O)N[C@@H](CC(C)C)C(=O)N2C[C@H](O)C[C@H]2C(=O)N[C@@H](Cc2c[nH]c3ccccc23)C(=O)N[C@@H](CO)C(=O)N[C@@H](Cc2c[nH]c3ccccc23)C(=O)N1C (stereo partly shown) [Example 9083] ({CH2CO}-Y[NMeA]NP[Dap]L[Hyp]WSW[NMeNle][NMeM]R[ξC]G-NH2; thioether N-14)	8.33 to 9.80

Attention now turns to another entry.
-- ask Using known records, supply pIC50 for CCCC[C@H]1C(=O)N(C)[C@@H](CCCC)C(=O)N[C@@H](CC(C)C)C(=O)N[C@H](C(=O)NCC(N)=O)CSCC(=O)N[C@@H](Cc2ccc(O)cc2)C(=O)N(C)[C@@H](C)C(=O)N[C@@H](CC(N)=O)C(=O)N2CCC[C@H]2C(=O)N[C@@H](Cc2c[nH]cn2)C(=O)N[C@@H](CCC(N)=O)C(=O)N2CCC[C@H]2C(=O)N[C@@H](Cc2c[nH]c3ccccc23)C(=O)N[C@@H](CO)C(=O)N[C@@H](Cc2c[nH]c3ccccc23)C(=O)N1C [Example 5079] ({CH2CO}-Y[NMeA]NPHQPWSW[NMeNle][NMeNle]LCG-NH2; thioether N-14)
-- reply 7.14 to 8.32

###

# target_system: LK35.2-hPD-L1 cells / PE-labeled PD-1-Ig (Homo sapiens, UniProt Q9NZQ7)
# Construct: expressed in transfected cells; host or cells: LK35.2 mouse B cell line
# assay_overview: LK35.2-hPD-L1 cell binding high-content screening assay
# Format: cell-based
# assay_context: cell binding assay, cell line not given; value given instead of cluster; read-out: CBA IC50 value
Positions of bridges follow the written chain, without caps; N, C: chain ends. Non-standard residues stand in square brackets, D forms with d. Residues, ends and D or L forms follow the SMILES beside them. Phe(2,4-Cl2) = N[C@@H](Cc1ccc(Cl)cc1Cl)C(=O)O; NMeF = CN[C@@H](Cc1ccccc1)C(=O)O; NMeNle = CCCC[C@H](NC)C(=O)O; Sar = CNCC(=O)O
result_type: IC50 (µM)
One number for each entry, in µM.

-- ask Fill in reported IC50 for this entry: CCCC[C@H]1C(=O)N(C)CC(=O)N[C@@H](CC(=O)O)C(=O)N[C@@H](C(C)C)C(=O)N(C)[C@@H](Cc2ccccc2)C(=O)N[C@@H](Cc2ccc(O)cc2)C(=O)N(C)CC(=O)N[C@@H](Cc2ccc(Cl)cc2Cl)C(=O)N[C@@H](Cc2ccc(O)cc2)C(=O)N[C@@H](CC(C)C)C(=O)N[C@H](C(=O)NCC(N)=O)CSCC(=O)N[C@@H](Cc2ccccc2)C(=O)N(C)[C@@H](Cc2ccccc2)C(=O)N1C [Example 3549] ({CH2CO}-F[NMeF][NMeNle][Sar]DV[NMeF]Y[Sar][Phe(2,4-Cl2)]YLCG-NH2; thioether N-13)
-- reply 0.728
